Target: T1, AAV8 (adeno-associated virus serotype 8)
T1 construct: also called adeno-associated virus serotype 8
Assay: SPR, AAV on CM5 chip;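 note: surface plasmon resonance with AAV amine-coupled to the chip as ligand, nanobodies injected as analyte over a concentration series, rate constants and affinity fitted from binding curves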
# kon per record follows
Hi! Could you send only the number? It should be in M⁻¹ s⁻¹, unit omitted.

// below: answered binders
{"binder": "A4-107 (VHH) VHH: VQLQESGGGLVQPGGSLRLSCIASGSGFSINTVGWYRQAPAKQRELVATLTRGGSTNYADSVKGRFTISRDNPKNTVYLQMNSLRPEDTAVYYCHVDEVRQSSWTTSNIWGQGTQVTVSS", "kon [M⁻¹ s⁻¹]": 1190}
{"binder": "A4-109 (VHH) VHH: VQLQESGGGLVQAGGSLRLSCAASGTIFSLNVMGWYRQAPGKQRELVASVTRGGNTNYADSVKGRFTISRDNAKTTVYLQMNSLRPEDTAVYYCHVDELRDSTWTTSNLWGQGTQVTVSS", "kon [M⁻¹ s⁻¹]": 154000}

Kindly review the next binder as well.
Prompt: Record request: kon value, item A4-102 (VHH) VHH: VQLQESGGGLVQPGGSLRLSCAASGSHFTINSVGWYRQAPGKQRELVAPVTRGGTTNYADFVKGRFTISRDNAKNTVYLQMNSLRPEDTAVYYCHVDELRDSSWTTSNLWGQGTQVTVSS
Response: 76300
